- assayed target: T1, ComA (Bacillus subtilis, UniProt P14204 1-214)
- T1 sequence: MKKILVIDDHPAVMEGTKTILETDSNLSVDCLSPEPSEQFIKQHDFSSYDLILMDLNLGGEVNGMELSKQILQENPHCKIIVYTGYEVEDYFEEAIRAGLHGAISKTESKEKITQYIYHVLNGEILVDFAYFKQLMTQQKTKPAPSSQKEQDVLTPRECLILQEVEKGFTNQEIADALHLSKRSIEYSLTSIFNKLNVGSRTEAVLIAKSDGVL
- assay name: EMSA; EMSA: 10 mM HEPES pH 7.6, 2 mM MgCl2, 0.1 mM EDTA, 200 mM KCl, 5 mM DTT, 10% glycerol; 10 ng DNA in 15 ul, 20 min, room temperature
- condition label: protein: recombinant; tags: N-terminal His6 (from expression primer); chain copies: 2; label: 5' biotin on strand 1; blunt
reported endpoint: binding result

| binder | binding result |
| --- | --- |
| PIR n1 (dsDNA) DNA 1: ATGTTTAGTGGAAATGATTGCGGCCCGCAAAAAATATTGCTGTAAAT DNA 2: ATTTACAGCAATATTTTTTGCGGGCCGCAATCATTTCCACTAAACAT | no binding |
| PDR n3 (dsDNA) DNA 1: AAACTGGAATCGAAACTTTGCGGCCATTGCGGTGATAAAAACATTTTT DNA 2: AAAAATGTTTTTATCACCGCAATGGCCGCAAAGTTTCGATTCCAGTTT | no binding |
| PIR n10 (dsDNA) DNA 1: ATGTTTAGTGGAAATGATTGCGGCATCTCCACACCGCAAAAAATATTGCTGTAAAT DNA 2: ATTTACAGCAATATTTTTTGCGGTGTGGAGATGCCGCAATCATTTCCACTAAACAT | no binding |
| PIR n14 (dsDNA) DNA 1: ATGTTTAGTGGAAATGATTGCGGCATCTCCACATACCCCGCAAAAAATATTGCTGTAAAT DNA 2: ATTTACAGCAATATTTTTTGCGGGGTATGTGGAGATGCCGCAATCATTTCCACTAAACAT | no binding |
| PDR n7 (dsDNA) DNA 1: AAACTGGAATCGAAACTTTGCGGCCATTACTTGCGGTGATAAAAACATTTTT DNA 2: AAAAATGTTTTTATCACCGCAAGTAATGGCCGCAAAGTTTCGATTCCAGTTT | no binding |

Give the reported value of binding result for this record: Ppel DR1 only (dsDNA) DNA 1: CGGCCTTTTGGTTTTTTTGCGGTCTGGCTGTTGGGAGTCTTTAGAAT DNA 2: ATTCTAAAGACTCCCAACAGCCAGACCGCAAAAAAACCAAAAGGCCG
no binding

Please look at this binder and report its binding result: PDR n10 (dsDNA) DNA 1: AAACTGGAATCGAAACTTTGCGGCCATTACCATTTGCGGTGATAAAAACATTTTT DNA 2: AAAAATGTTTTTATCACCGCAAATGGTAATGGCCGCAAAGTTTCGATTCCAGTTT
no binding

Given the binder PDR n1 (dsDNA) DNA 1: AAACTGGAATCGAAACTTTGCGGCTTGCGGTGATAAAAACATTTTT DNA 2: AAAAATGTTTTTATCACCGCAAGCCGCAAAGTTTCGATTCCAGTTT , write its reported binding result.
no binding

The reported numbers originate from paper PMC4797271.
